- Test summary: Clearance in mouse liver microsomes assessed as extraction ratio
- Assay type: ADME
- Condition summary: read-out: ERH
Readout label: hepatic extraction ratio

Item smiles | Readout label | Result value
CCOC(=O)[C@@]1(Cc2ccccc2)CCc2cnc3c(-c4ccc(C(F)(F)F)cc4)cnn3c21 | hepatic extraction ratio | 0.6

For reference, reported hepatic extraction ratio for `CCOC(=O)[C@](C)(Cc1ccccc1)c1c(C)cnc2c(-c3ccc(C(F)(F)F)cc3)cnn12` stands at 0.3

----------
- Tested target: UniProt:Q8TDV5
- Sequence (Q8TDV5 whole entry): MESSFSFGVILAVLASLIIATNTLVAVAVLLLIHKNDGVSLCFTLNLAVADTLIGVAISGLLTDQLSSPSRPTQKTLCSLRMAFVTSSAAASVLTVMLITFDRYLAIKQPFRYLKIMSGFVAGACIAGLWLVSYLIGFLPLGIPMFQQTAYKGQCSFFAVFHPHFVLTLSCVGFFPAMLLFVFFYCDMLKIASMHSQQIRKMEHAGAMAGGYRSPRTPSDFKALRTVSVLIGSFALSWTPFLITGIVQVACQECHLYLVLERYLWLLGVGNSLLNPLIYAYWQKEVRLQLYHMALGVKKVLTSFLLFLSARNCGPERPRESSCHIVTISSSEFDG
- Test summary: Agonist activity at human GPR119 overexpressed in CHO cells assessed as increase in cellular cAMP production by HTRF method relative to AR231453
- Type: functional, cell-based
In this section we review reported Efficacy values for a set of compounds.
Express your answer in %, writing the number without its unit.

Compound | Scale unit | Result value
COC(=O)C1(Cc2ccccc2)OCc2cnc3c(-c4ccc(C(F)(F)F)cc4)cnn3c21 (racemic) | % | 77
CCOC(=O)[C@](C)(Cc1ccccc1)c1cc(C)nc2c(-c3ccc(Cl)cc3)cnn12 | % | 15
COC(=O)C1(Cc2ccccc2)CCc2cnc3c(-c4ccc(S(C)(=O)=O)cc4)cnn3c21 (racemic) | % | 81

Now take the following compound into account.
For reference, reported Efficacy for `CCOC(=O)[C@]1(Cc2ccccc2)CCc2cnc3c(-c4ccc(C(F)(F)F)cc4)cnn3c21` stands at 66

----------
- Tested target: Glucose-dependent insulinotropic receptor (Mus musculus, UniProt Q7TQP3)
- Sequence (Q7TQP3 whole entry): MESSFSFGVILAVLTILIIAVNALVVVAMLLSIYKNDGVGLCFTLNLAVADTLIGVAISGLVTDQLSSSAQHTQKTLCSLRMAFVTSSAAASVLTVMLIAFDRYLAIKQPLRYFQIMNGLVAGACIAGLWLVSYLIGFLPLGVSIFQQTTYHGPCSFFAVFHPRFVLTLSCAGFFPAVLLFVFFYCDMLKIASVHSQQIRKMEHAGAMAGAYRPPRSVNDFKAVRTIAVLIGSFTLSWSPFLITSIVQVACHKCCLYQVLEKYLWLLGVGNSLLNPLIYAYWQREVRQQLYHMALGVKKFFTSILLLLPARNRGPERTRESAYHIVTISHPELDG
- Test summary: Agonist activity at mouse GPR119 overexpressed in CHO cells assessed as increase in cellular cAMP production by HTRF method
Readout label: pEC50
Quick note: pEC50 values are minus log10 of concentrations in mol/L.

Example entries and their recorded answers appear below.
Compound | Tested target | Result value
COC(=O)[C@@]1(Cc2cccc(F)c2)N=Cc2cnc3c(-c4ccc(C(F)(F)F)cc4)cnn3c21 | Glucose-dependent insulinotropic receptor (Mus musculus, UniProt Q7TQP3) | 6.87
COC(=O)C1(Cc2ccccc2)COc2cnc3c(-c4ccc(C(F)(F)F)cc4)cnn3c21 (racemic) | Glucose-dependent insulinotropic receptor (Mus musculus, UniProt Q7TQP3) | 7.82
CCOC(=O)[C@@]1(Cc2ccccc2)CNc2cnc3c(-c4ccc(C(F)(F)F)cc4)cnn3c21 | Glucose-dependent insulinotropic receptor (Mus musculus, UniProt Q7TQP3) | 7.60
CCOC(=O)[C@](C)(Cc1ccccc1)c1c(Cl)cnc2c(-c3ccc(C(F)(F)F)cc3)cnn12 | Glucose-dependent insulinotropic receptor (Mus musculus, UniProt Q7TQP3) | 8.10
COC(=O)C1(Cc2ccccc2)CCc2cnc3c(-c4ccc(C(F)(F)F)cc4)cnn3c21 (racemic) | Glucose-dependent insulinotropic receptor (Mus musculus, UniProt Q7TQP3) | 7.77

Param item: `CCOC(=O)[C@@]1(Cc2ccccc2)CCCc2cnc3c(-c4ccc(C(F)(F)F)cc4)cnn3c21` ; param system: Glucose-dependent insulinotropic receptor (Mus musculus, UniProt Q7TQP3); output pEC50: 7.57

Param item: `COC(=O)[C@@]1(Cc2cccc(F)c2)CCc2cnc3c(-c4ccc(C(F)(F)F)cc4)cnn3c21` ; param system: Glucose-dependent insulinotropic receptor (Mus musculus, UniProt Q7TQP3); output pEC50: 8.05

Param item: COC(=O)C1(Cc2ccccc2)OCc2cnc3c(-c4ccc(C(F)(F)F)cc4)cnn3c21 (racemic) ; param system: Glucose-dependent insulinotropic receptor (Mus musculus, UniProt Q7TQP3); output pEC50: 7.46

Param item: `CCOC(=O)[C@](C)(Cc1ccccc1)c1ccnc2c(-c3ccc(C(F)(F)F)cc3)c(C)nn12` ; param system: Glucose-dependent insulinotropic receptor (Mus musculus, UniProt Q7TQP3); output pEC50: 7.62

Param item: `CCOC(=O)[C@@]1(Cc2ccccc2)CCc2cnc3c(-c4ccc(Cl)cc4)cnn3c21` ; param system: Glucose-dependent insulinotropic receptor (Mus musculus, UniProt Q7TQP3); output pEC50: 7.96

Param item: `CCOC(=O)[C@@]1(Cc2ccccc2)CCc2cnc3c(-c4ccc(C(F)(F)F)cc4)cnn3c21` ; param system: Glucose-dependent insulinotropic receptor (Mus musculus, UniProt Q7TQP3); output pEC50: 8.10

Param item: `CCOC(=O)[C@](C)(Cc1ccccc1)c1c(C)cnc2c(-c3ccc(C(F)(F)F)cc3)cnn12` ; param system: Glucose-dependent insulinotropic receptor (Mus musculus, UniProt Q7TQP3); output pEC50: 7.96

Param item: `COC(=O)[C@@]1(Cc2cccc(F)c2)NCc2cnc3c(-c4ccc(C(F)(F)F)cc4)cnn3c21` ; param system: Glucose-dependent insulinotropic receptor (Mus musculus, UniProt Q7TQP3); output pEC50: 7.85
